Listing of entries alongside the reported glycan array binding signal (z-score).
# Test system: GlcNAc(b1-3)Gal(b1-4)GlcNAc(b1-2)Man(a1-3)[GlcNAc(b1-3)Gal(b1-4)GlcNAc(b1-2)Man(a1-6)]Man(b1-4)GlcNAc(b1-4)[Fuc(a1-6)]GlcNAc
# Measurement protocol: glycan array binding signal (z-score within array); higher = stronger binding
# Assay setup: glycan notation: IUPAC condensed, linker removed
This is one part of a sample in which the strongest signals are shown more often than they occur.
Result type: glycan array binding signal (z-score)

- Binder: "CM2 (Cordyceps militaris) (protein) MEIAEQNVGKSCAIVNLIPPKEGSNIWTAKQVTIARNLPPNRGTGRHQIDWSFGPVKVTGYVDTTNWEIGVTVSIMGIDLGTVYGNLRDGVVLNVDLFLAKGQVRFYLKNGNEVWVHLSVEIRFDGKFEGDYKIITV"
  Result type: "glycan array binding signal (z-score)"
  Reading: 2.3
- Binder: "PpFlo2 (Pichia pastoris) (protein) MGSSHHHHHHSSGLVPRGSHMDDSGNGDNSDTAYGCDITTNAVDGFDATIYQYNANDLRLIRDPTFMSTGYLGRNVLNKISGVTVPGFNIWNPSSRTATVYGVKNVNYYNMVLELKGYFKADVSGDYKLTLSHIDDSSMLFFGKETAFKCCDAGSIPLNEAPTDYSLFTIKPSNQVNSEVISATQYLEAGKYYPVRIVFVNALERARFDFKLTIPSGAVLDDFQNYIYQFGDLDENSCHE"
  Result type: "glycan array binding signal (z-score)"
  Reading: 4.49
- Binder: "LysMD3 (Homo sapiens), Q7Z3D4 (protein) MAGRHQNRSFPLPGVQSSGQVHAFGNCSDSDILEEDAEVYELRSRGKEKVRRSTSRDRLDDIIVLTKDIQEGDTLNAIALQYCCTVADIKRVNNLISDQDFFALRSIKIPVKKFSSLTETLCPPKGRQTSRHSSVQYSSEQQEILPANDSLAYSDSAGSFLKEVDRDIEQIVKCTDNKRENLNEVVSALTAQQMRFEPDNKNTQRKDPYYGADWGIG"
  Result type: "glycan array binding signal (z-score)"
  Reading: 1.83
- Binder: "Gal 10 (Homo sapiens), Q05315 (protein) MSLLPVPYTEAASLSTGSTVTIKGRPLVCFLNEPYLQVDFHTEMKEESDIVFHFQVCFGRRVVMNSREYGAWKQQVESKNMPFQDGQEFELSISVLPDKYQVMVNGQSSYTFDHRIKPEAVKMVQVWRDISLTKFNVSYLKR"
  Result type: "glycan array binding signal (z-score)"
  Reading: -0.014
- Binder: "PNA (Arachis hypogaea), P02872 (protein) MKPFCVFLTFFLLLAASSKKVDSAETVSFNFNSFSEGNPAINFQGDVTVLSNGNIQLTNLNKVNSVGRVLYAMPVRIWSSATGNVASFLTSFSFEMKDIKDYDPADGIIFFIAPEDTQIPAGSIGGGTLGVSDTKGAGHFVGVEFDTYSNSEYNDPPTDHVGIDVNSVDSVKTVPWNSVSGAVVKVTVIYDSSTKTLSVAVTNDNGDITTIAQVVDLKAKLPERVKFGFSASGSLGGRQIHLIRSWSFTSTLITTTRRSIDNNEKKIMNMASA"
  Result type: "glycan array binding signal (z-score)"
  Reading: 0.22
- Binder: "SP15308A-bot-339-19-339 (Bacteroides ovatus) (protein) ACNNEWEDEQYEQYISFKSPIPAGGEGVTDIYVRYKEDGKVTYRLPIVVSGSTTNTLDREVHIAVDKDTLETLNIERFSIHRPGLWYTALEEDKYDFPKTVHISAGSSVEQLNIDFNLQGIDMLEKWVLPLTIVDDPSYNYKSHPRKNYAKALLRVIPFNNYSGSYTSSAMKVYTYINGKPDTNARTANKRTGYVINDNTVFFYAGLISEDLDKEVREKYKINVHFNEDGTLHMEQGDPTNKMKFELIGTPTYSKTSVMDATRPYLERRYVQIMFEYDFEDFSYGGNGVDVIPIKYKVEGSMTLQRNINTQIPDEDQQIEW"
  Result type: "glycan array binding signal (z-score)"
  Reading: 0.083
